- TARGET_ENTITY: Canine_OSMR_hlgG1_Fc (canine)
- Sequence (chain, as listed by the source limits assumed, form in doubt): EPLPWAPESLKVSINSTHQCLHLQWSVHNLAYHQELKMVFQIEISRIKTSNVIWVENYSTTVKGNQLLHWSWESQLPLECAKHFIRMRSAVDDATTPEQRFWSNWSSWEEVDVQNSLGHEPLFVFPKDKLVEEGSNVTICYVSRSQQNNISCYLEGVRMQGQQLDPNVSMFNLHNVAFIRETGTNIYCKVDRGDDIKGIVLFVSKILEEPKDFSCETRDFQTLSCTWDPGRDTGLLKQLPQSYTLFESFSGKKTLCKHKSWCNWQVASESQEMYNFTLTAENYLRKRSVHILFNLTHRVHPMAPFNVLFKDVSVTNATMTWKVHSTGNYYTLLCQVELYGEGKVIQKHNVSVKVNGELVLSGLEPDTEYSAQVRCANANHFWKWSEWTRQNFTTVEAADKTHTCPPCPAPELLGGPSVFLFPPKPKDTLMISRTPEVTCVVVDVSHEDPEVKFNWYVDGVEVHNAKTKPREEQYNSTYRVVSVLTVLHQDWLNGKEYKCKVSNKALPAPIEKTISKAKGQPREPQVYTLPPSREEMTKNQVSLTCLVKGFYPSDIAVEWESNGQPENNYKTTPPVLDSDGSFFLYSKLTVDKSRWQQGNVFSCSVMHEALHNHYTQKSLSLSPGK
- TEST_DETAILS: SPR Biacore
The entries below are paired with their reported kon.

BINDER	kon (M⁻¹ s⁻¹)
Mu_02D09_VH (SEQ ID NO: 31)_D31A (antibody, V domains shown) VH: EVQLVESGGGLVKPGGSLTLSCAASGFTFSAYGMHWLRQAPEKGLEWVAYISSGSRAVFFADTVKGRFTISRDNAKNTLFLQMTSLRSDDTAMYYCARDRYDGRGFAYWGQGTLVTVSA VL: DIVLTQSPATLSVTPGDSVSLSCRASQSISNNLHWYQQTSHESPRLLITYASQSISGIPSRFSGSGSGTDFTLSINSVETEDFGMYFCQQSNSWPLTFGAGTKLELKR	908000
Mu_02D09_VH (SEQ ID NO: 31)_Y32A (antibody, V domains shown) VH: EVQLVESGGGLVKPGGSLTLSCAASGFTFSDAGMHWLRQAPEKGLEWVAYISSGSRAVFFADTVKGRFTISRDNAKNTLFLQMTSLRSDDTAMYYCARDRYDGRGFAYWGQGTLVTVSA VL: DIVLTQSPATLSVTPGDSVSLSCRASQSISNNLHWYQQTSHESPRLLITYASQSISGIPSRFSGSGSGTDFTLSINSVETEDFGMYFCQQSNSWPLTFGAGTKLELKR	707000
Mu_10F07_VL (SEQ ID NO: 41)_L33A (antibody, V domains shown) VH: DVKLVESGEGLVKPGGSLKLSCAASGFTFSSYAMSWVRQTPEKRLEWVTYISSGGDYFYYADTVKGRFTISRDNARNTLYLQMSSLKSEDTAMYYCTRDPITGTFAYWGQGTLVTVSA VL: DIQMTQTTSSLSASLGDRVTISCRASQDITNYANWYQQKPDGTVKLLIYYTSTLHSGVPSRFSGSGSGTDFSLTISNLEQEDIATYFCQQGHMLPWTFGGGTKLEIKR	40500
Mu_10F07_VH (SEQ ID NO: 39)_D99A (antibody, V domains shown) VH: DVKLVESGEGLVKPGGSLKLSCAASGFTFSSYAMSWVRQTPEKRLEWVTYISSGGDYFYYADTVKGRFTISRDNARNTLYLQMSSLKSEDTAMYYCTRAPITGTFAYWGQGTLVTVSA VL: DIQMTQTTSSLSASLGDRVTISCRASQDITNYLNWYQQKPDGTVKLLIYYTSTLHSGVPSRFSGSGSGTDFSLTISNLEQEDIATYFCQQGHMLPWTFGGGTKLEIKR	51600
mouse: canine 10F07 chimera (antibody, V domains shown) VH: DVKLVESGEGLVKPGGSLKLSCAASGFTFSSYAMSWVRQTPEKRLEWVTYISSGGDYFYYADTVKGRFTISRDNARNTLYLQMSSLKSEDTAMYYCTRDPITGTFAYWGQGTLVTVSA VL: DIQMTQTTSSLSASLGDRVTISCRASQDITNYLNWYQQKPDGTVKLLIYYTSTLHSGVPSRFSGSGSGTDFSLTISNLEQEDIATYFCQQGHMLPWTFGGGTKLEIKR	49400
mouse: canine 09E09 chimera (antibody, V domains shown) VH: DVKLVESGEGLVKPGGSLKLSCAASGFTFSSYAMSWVRQTPEKRLEWVAYISSGGDYIYYADTVKGRFTISRDNARNTLYLQMSSLKSEDTAMYYCTRDPITGTFAYWGQGTLVTVSA VL: DLQMTQTTSSLSASLGDRVTISCRASQDINNYLNWYQQKPDGTVKLLIYYTSTLHSGVPSRFSGSGSGTDYSLTISNLEQEDIATYFCQQGNTLPWTFGGGTKLEIKR	572000
Mu_02D09_VL (SEQ ID NO: 33)_Q27A (antibody, V domains shown) VH: EVQLVESGGGLVKPGGSLTLSCAASGFTFSDYGMHWLRQAPEKGLEWVAYISSGSRAVFFADTVKGRFTISRDNAKNTLFLQMTSLRSDDTAMYYCARDRYDGRGFAYWGQGTLVTVSA VL: DIVLTQSPATLSVTPGDSVSLSCRASASISNNLHWYQQTSHESPRLLITYASQSISGIPSRFSGSGSGTDFTLSINSVETEDFGMYFCQQSNSWPLTFGAGTKLELKR	126000
Canine_OSM (ligand) SCSDKYPELLGQLQKQADFMQHTNTLLDLYIRSQGLDKNGLKEHCRERPGAFPSKDALQRLSRRVFLRTLDTTLGQVLLRLAALEQDIPKAQDLEMLSGVKLNIRGFKNNIHCMAQLLPGSSETTEPTPTSPGASPSPTPTLDTFQRRLEGCRFLHGYHRFMRSVGQVFREWGKSLSRSRR	68700
Mu_02D09_VL (SEQ ID NO: 33)_S56A (antibody, V domains shown) VH: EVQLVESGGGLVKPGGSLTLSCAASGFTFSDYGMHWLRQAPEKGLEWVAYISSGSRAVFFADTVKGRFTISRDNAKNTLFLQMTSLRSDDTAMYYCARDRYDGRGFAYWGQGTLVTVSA VL: DIVLTQSPATLSVTPGDSVSLSCRASQSISNNLHWYQQTSHESPRLLITYASQSIAGIPSRFSGSGSGTDFTLSINSVETEDFGMYFCQQSNSWPLTFGAGTKLELKR	41200
Mu_10F07_VH (SEQ ID NO: 39)_Y107A (antibody, V domains shown) VH: DVKLVESGEGLVKPGGSLKLSCAASGFTFSSYAMSWVRQTPEKRLEWVTYISSGGDYFYYADTVKGRFTISRDNARNTLYLQMSSLKSEDTAMYYCTRDPITGTFAAWGQGTLVTVSA VL: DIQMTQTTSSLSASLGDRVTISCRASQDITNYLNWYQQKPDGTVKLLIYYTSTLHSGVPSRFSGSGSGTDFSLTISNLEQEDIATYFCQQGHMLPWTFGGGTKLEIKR	40100
Mu_10F07_VL (SEQ ID NO: 41)_T53A (antibody, V domains shown) VH: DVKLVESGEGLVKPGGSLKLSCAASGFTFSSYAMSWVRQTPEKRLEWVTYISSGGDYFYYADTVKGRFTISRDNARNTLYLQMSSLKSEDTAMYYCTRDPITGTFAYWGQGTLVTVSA VL: DIQMTQTTSSLSASLGDRVTISCRASQDITNYLNWYQQKPDGTVKLLIYYTSALHSGVPSRFSGSGSGTDFSLTISNLEQEDIATYFCQQGHMLPWTFGGGTKLEIKR	65000
